Test system: PC-3
Assay: NCI-60 one-dose screen
Assay type: cell-based
Conditions: Homo sapiens; PC-3, Prostate Cancer panel; single dose 10^−5 M; read-out: Growth inhibition %
Experimental: The newly synthesized compounds were screened for their in vitro anticancer activity at the Developmental Therapeutic Program (DTP) of the National Cancer Institute (NCI). The screening involved a panel of 60 human tumor cell lines consisting of 9 tissue types to screen for potential anti-cancer agents. The primary screening of submitted compounds was performed by testing a single dose (10^−5 M) in the full NCI-60 panel. […]
readout-type: inhibition at 10 µM (%)
Express the result in % but write the number alone.

{"compound": "Clc1ccccc1CNc1c2ccccc2nc2ccccc12 [Compound 11, Acridin-9-yl-(2-chlorobenzyl)-amine]", "test-system": "PC-3", "recorded-number": 82.9}
{"compound": "COc1ccc2nc3ccccc3c(NCc3ccccc3)c2c1 [Compound 25, Benzyl-(2-methoxyacridin-9-yl)-amine]", "test-system": "PC-3", "recorded-number": 71.3}
{"compound": "Fc1cccc(CNc2c3ccccc3nc3ccccc23)c1F [Compound 20, Acridin-9-yl-(2,3-difluorobenzyl)-amine]", "test-system": "PC-3", "recorded-number": 42.9}
{"compound": "Clc1cccc(CNc2c3ccccc3nc3ccccc23)c1 [Compound 12, Acridin-9-yl-(3-chlorobenzyl)-amine]", "test-system": "PC-3", "recorded-number": 76.5}
{"compound": "c1csc(-c2ccc(CNc3c4ccccc4nc4ccccc34)cc2)c1 [Compound 24]", "test-system": "PC-3", "recorded-number": 76}

Give its inhibition at 10 µM value. Item: COc1ccc2nc3ccccc3c(NCc3ccc(Cl)cc3)c2c1 [Compound 29]
80.5

Give its inhibition at 10 µM value. Item: Cc1ccc(CNc2c3ccccc3nc3ccccc23)cc1 [Compound 4, Acridin-9-yl-(4-methylbenzyl)-amine]
75.7

Give its inhibition at 10 µM value. Item: COc1ccc2nc3ccccc3c(NCc3ccc(F)cc3)c2c1 [Compound 28]
82.9

Give its inhibition at 10 µM value. Item: COc1ccc2nc3ccccc3c(NCc3ccc(C)cc3)c2c1 [Compound 26]
88.6

Give its inhibition at 10 µM value. Item: Cc1ccc2nc3ccccc3c(NCc3ccccc3)c2c1 [Compound 30, Benzyl-(2-methylacridin-9-yl)-amine]
70.3

Give its inhibition at 10 µM value. Item: COc1ccccc1CNc1c2ccccc2nc2ccccc12 [Compound 5, Acridin-9-yl-(2-methoxybenzyl)-amine]
56.8

Give its inhibition at 10 µM value. Item: Cc1ccccc1CNc1c2ccccc2nc2ccccc12 [Compound 2, Acridin-9-yl-(2-methylbenzyl)-amine]
74.4

====

Tested on: COLO 205
Assay: NCI-60 one-dose screen
Format: cell-based
Details: Homo sapiens; COLO 205, Colon Cancer panel; single dose 10^−5 M; read-out: Growth inhibition %
readout-type: inhibition at 10 µM (%)
Express the result in % but write the number alone.

{"compound": "Cc1cccc(CNc2c3ccccc3nc3ccccc23)c1 [Compound 3, Acridin-9-yl-(3-methylbenzyl)-amine]", "recorded-number": 116}
{"compound": "COc1ccccc1CNc1c2ccccc2nc2ccccc12 [Compound 5, Acridin-9-yl-(2-methoxybenzyl)-amine]", "recorded-number": 87.2}
{"compound": "Cc1ccccc1CNc1c2ccccc2nc2ccccc12 [Compound 2, Acridin-9-yl-(2-methylbenzyl)-amine]", "recorded-number": 119}

Let us move to another entry and its inhibition at 10 µM.
Give its inhibition at 10 µM value. Item: c1coc(CNc2c3ccccc3nc3ccccc23)c1 [Compound 14, Acridin-9-yl-furan-2-ylmethyl-amine]
64.8

====

Test system: LOX IMVI
Experiment: NCI-60 one-dose screen
Assay type: cell-based
Settings: Homo sapiens, Melanoma panel, single dose 10^−5 M, read-out: Growth inhibition %
The compounds listed here are annotated with their inhibition at 10 µM.
Express the result in % but write the number alone.

Sample answers from the record:
{"chemical-string": "Cc1ccc(CNc2c3ccccc3nc3ccccc23)cc1", "recorded-number": 88.2}
{"chemical-string": "Fc1ccc(CNc2c3ccccc3nc3ccccc23)cc1F", "recorded-number": 87.5}
{"chemical-string": "Cc1ccccc1CNc1c2ccccc2nc2ccccc12", "recorded-number": 90.9}
{"chemical-string": "Cc1ccc2nc3ccccc3c(NCc3ccccc3)c2c1", "recorded-number": 90.9}

Let us move to another entry and its inhibition at 10 µM.
Give its inhibition at 10 µM value. Item: `Fc1ccc(CNc2c3ccccc3nc3ccccc23)cc1`
90.6

====

Tested on: KM12
Test: NCI-60 one-dose screen
Format: cell-based
Settings: Homo sapiens; KM12, Colon Cancer panel; single dose 10^−5 M; read-out: Growth inhibition %
readout-type: inhibition at 10 µM (%)
Express the result in % but write the number alone.

Sample answers from the record:
{"chemical-string": "COc1ccc(CNc2c3ccccc3nc3ccccc23)c(OC)c1", "inhibition at 10 µM (%)": 45.7}
{"chemical-string": "Fc1cccc(CNc2c3ccccc3nc3ccccc23)c1", "inhibition at 10 µM (%)": 51.4}
{"chemical-string": "Fc1ccc(CNc2c3ccccc3nc3ccccc23)cc1F", "inhibition at 10 µM (%)": 46.7}

Give its inhibition at 10 µM value. Item: `Clc1cccc(CNc2c3ccccc3nc3ccccc23)c1`
59.2

Give its inhibition at 10 µM value. Item: `Cc1cccc(CNc2c3ccccc3nc3ccccc23)c1`
74.4

Give its inhibition at 10 µM value. Item: `Clc1ccccc1CNc1c2ccccc2nc2ccccc12`
78

====

Tested on: SR
Assay: NCI-60 one-dose screen
Assay type: cell-based
Conditions: Homo sapiens, Leukemia panel, single dose 10^−5 M, read-out: Growth inhibition %
The compounds listed here are annotated with their inhibition at 10 µM.
Express the result in % but write the number alone.

Sample answers from the record:
{"compound": "Fc1ccccc1CNc1c2ccccc2nc2ccccc12 [Compound 8, Acridin-9-yl-(2-fluorobenzyl)-amine]", "test-system": "SR", "units-of-measure": "%", "recorded-number": 82}
{"compound": "Fc1cccc(CNc2c3ccccc3nc3ccccc23)c1 [Compound 9, Acridin-9-yl-(3-fluorobenzyl)-amine]", "test-system": "SR", "units-of-measure": "%", "recorded-number": 80.9}
{"compound": "COc1ccc2nc3ccccc3c(NCc3ccc(Cl)cc3)c2c1 [Compound 29]", "test-system": "SR", "units-of-measure": "%", "recorded-number": 130}
{"compound": "c1ccc(CCNc2c3ccccc3nc3ccccc23)cc1 [Compound 23, Acridin-9-yl-phenethyl-amine]", "test-system": "SR", "units-of-measure": "%", "recorded-number": 79.1}

Give its inhibition at 10 µM value. Item: Clc1ccccc1CNc1c2ccccc2nc2ccccc12 [Compound 11, Acridin-9-yl-(2-chlorobenzyl)-amine]
99.5

Give its inhibition at 10 µM value. Item: COc1ccc(CNc2c3ccccc3nc3ccccc23)c(OC)c1 [Compound 17, Acridin-9-yl-(2,4-dimethoxybenzyl)-amine]
81.9

====

Here's what we have: pIC50 numbers for PDE5A (Homo sapiens).
pIC50 (log units): -log10 of the concentration in mol/L.

Sample answers from the record:
{"chemical-string": "COc1ccc(CNc2c3ccccc3nc3ccc(OC)cc23)cc1", "test-system": "PDE5A (Homo sapiens)", "pIC50": 5.73}
{"chemical-string": "COc1ccc2nc3ccccc3c(NCc3ccc(F)cc3)c2c1", "test-system": "PDE5A (Homo sapiens)", "pIC50": 5.27}
{"chemical-string": "Clc1ccccc1CNc1c2ccccc2nc2ccccc12", "test-system": "PDE5A (Homo sapiens)", "pIC50": 5.36}
{"chemical-string": "COc1ccc(CNc2c3ccccc3nc3ccccc23)c(OC)c1", "test-system": "PDE5A (Homo sapiens)", "pIC50": 5.17}
{"chemical-string": "COc1ccc2nc3ccccc3c(NCc3ccc(Cl)cc3)c2c1", "test-system": "PDE5A (Homo sapiens)", "pIC50": 5.27}
{"chemical-string": "c1coc(CNc2c3ccccc3nc3ccccc23)c1", "test-system": "PDE5A (Homo sapiens)", "pIC50": 5.13}
{"chemical-string": "Cc1cccc(CNc2c3ccccc3nc3ccccc23)c1", "test-system": "PDE5A (Homo sapiens)", "pIC50": 5.19}
{"chemical-string": "COc1ccc(CNc2c3ccccc3nc3ccccc23)cc1OC", "test-system": "PDE5A (Homo sapiens)", "pIC50": 5.01}
{"chemical-string": "Fc1cccc(CNc2c3ccccc3nc3ccccc23)c1", "test-system": "PDE5A (Homo sapiens)", "pIC50": 5.13}
{"chemical-string": "Clc1cccc(CNc2c3ccccc3nc3ccccc23)c1", "test-system": "PDE5A (Homo sapiens)", "pIC50": 5.20}

Provide the documented pIC50 with PDE5A (Homo sapiens) as the system for `c1csc(CNc2c3ccccc3nc3ccccc23)c1`
5.19

Provide the documented pIC50 with PDE5A (Homo sapiens) as the system for `Cc1ccc2nc3ccccc3c(NCc3ccc(Cl)cc3)c2c1`
5.32

Provide the documented pIC50 with PDE5A (Homo sapiens) as the system for `COc1ccc2nc3ccccc3c(NCc3ccc(C)cc3)c2c1`
6.08

Provide the documented pIC50 with PDE5A (Homo sapiens) as the system for `COc1ccc2nc3ccccc3c(NCc3ccccc3)c2c1`
5.44

Provide the documented pIC50 with PDE5A (Homo sapiens) as the system for `c1ccc(CCNc2c3ccccc3nc3ccccc23)cc1`
5.18

Provide the documented pIC50 with PDE5A (Homo sapiens) as the system for `Cc1ccc2nc3ccccc3c(NCc3ccccc3)c2c1`
5.34

Provide the documented pIC50 with PDE5A (Homo sapiens) as the system for `Cc1ccc(CNc2c3ccccc3nc3ccccc23)cc1`
5.35
